assayed_system: T1, Recombinant human CD4 (R&D Systems, Cat. 10327-CD) (human, UniProt P01730 26-390, limits assumed)
T1 construct: Soluble analyte in the Octet assay
method_description: BLI Octet, mAb on anti-mouse Fc sensor, CD4 100/50/25 nM, 1:1 global fit;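 also: antibodies loaded at 10 µg/mL, an unrelated mouse-derived antibody served as internal reference control, association and dissociation phases fitted after Savitzky-Golay smoothing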
readout: koff (s⁻¹)
Give bare numbers, in s⁻¹.

Please look up its koff: 75110_05B13A (antibody, V domains shown, Tested as antibody purified from AlivaMab Mouse hybridoma supernatant (captured by anti-mouse IgG Fc)) VH: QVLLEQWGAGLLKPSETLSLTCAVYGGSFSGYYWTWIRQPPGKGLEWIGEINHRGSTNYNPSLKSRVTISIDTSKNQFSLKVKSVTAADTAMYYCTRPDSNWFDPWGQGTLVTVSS VL: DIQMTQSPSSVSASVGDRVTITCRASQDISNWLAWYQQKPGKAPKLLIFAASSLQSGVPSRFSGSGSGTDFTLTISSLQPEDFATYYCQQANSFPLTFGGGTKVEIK
0.00058
